# Tested on: A549
# Test name: Cytotoxicity against human A549 cells
# Type: functional, cell-based
Result type: IC50 (µg/mL)
Numbers only, in µg/mL.

Reference set (10 entries):
State measured IC50 of the compound C/C1=C\CC(C)(C)/C=C/C(=N/OC(=O)CCl)C(/C)=C/CC1 with A549.
46.1

State measured IC50 of the compound CC(=O)Oc1ccc(C(=O)O/N=C2/C=C/C(C)(C)C/C=C(\C)CC/C=C/2C)cc1 with A549.
10.9

State measured IC50 of the compound Cc1c2ccncc2c(C)c2c1[nH]c1ccccc12 with A549.
0.39

State measured IC50 of the compound C/C1=C\CC(C)(C)/C=C/C(=O)N/C(C)=C/CC1 with A549.
56.9

State measured IC50 of the compound C/C1=C\CC(C)(C)/C=C/C(=N/OC(=O)c2ccc([N+](=O)[O-])cc2)C(/C)=C/CC1 with A549.
9.28

State measured IC50 of the compound C/C1=C\CC(C)(C)/C=C/C(=N/OC(=O)c2ccccc2)C(/C)=C/CC1 with A549.
14.3

State measured IC50 of the compound C/C1=C\CC(C)(C)/C=C/C(=N/OC(=O)[C@H](NC(=O)OC(C)(C)C)C(C)(C)C)C(/C)=C/CC1 with A549.
1.37

State measured IC50 of the compound CC(=O)O/N=C1/C=C/C(C)(C)C/C=C(\C)CC/C=C/1C with A549.
30.8

State measured IC50 of the compound COc1ccc(C(=O)O/N=C2/C=C/C(C)(C)C/C=C(\C)CC/C=C/2C)cc1 with A549.
1.52

State measured IC50 of the compound C/C1=C\CC(C)(C)/C=C/C(=N/OC(=O)c2ccc(Br)cc2)C(/C)=C/CC1 with A549.
40.8

Would you mind giving IC50 for every compound in the list below?
1. C/C1=C\CC(C)(C)/C=C/C(=O)/C(C)=C/CC1
2. C/C1=C\CC(C)(C)/C=C/C(=N/OC(=O)c2cccc(Cl)c2)C(/C)=C/CC1
3. C#CCN[C@@H]1CC/C(C)=C/CC(C)(C)/C=C/C(=O)[C@@H]1C
4. COc1cc(C(=O)O/N=C2/C=C/C(C)(C)C/C=C(\C)CC/C=C/2C)ccc1OC(C)=O

1.03
52.9
32.2
15.6
